These measurements were taken from patent US20130310347A1.

- target-system: Hsp90β/p23 interactions (Homo sapiens)
- Construct: also with FL-eGFP reporter (293Tβ-FG) and as xenografts in nude mice
- Sequence (P08238 whole entry): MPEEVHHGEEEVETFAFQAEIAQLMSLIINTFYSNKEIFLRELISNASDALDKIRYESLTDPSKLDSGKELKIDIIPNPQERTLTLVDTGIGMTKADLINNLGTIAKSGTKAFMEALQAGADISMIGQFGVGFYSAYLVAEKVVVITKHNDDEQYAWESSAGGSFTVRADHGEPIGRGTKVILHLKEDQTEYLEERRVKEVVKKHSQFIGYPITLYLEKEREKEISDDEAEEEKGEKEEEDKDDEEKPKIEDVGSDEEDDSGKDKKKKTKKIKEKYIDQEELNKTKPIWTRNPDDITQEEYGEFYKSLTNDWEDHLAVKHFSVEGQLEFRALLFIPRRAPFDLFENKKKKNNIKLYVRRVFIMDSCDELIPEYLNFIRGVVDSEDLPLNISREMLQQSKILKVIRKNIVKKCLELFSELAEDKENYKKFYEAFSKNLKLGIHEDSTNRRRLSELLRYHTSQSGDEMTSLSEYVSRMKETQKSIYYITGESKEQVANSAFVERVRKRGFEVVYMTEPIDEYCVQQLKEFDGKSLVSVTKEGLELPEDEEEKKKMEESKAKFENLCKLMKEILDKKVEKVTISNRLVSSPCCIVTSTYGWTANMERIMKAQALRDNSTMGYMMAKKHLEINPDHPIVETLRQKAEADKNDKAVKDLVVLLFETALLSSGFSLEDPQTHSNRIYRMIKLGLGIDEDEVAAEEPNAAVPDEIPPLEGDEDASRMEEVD
- test-details: HTS dose response, 293T cells stably expressing Hsp90β/p23 split RL reporters
- experimental-context: inhibition of bioluminescence signals by 50% vs carrier control; 8 point dose response 0.156-20 μM; 24 h
- Procedure: Novel Hsp90 inhibitors using a commercial 30,176 small molecule chemical compound library with unknown targets and molecular mechanisms (FIG. 9B) were also identified. […] Baseline complemented RL activities were determined 90 mins after addition of 20 μl of ENDUREN® (10 μM final concentration) (Promega, Madison, Wis.) using the Analyst GT (Molecular Device, Sunnyvale, Calif.), with an acquisition time of 0.2 sec per well. […]
readout-type: IC50 (µM)

# compound, numeric-readout
data = [
    ("Cc1cc(NC(=O)CSc2nc(-c3cccs3)cc(C(F)(F)F)n2)no1 [CP9]", 15.3),
]

---

- test-details: logP value (partition coefficient)
- Format: physicochemical

# smiles-record, logP
measured = [
    ("Cc1cc(NC(=O)CSc2nc(-c3cccs3)cc(C(F)(F)F)n2)no1", 4.1),
]
